Reference source for all entries: paper PMC10115415

SYSTEM_UNDER_TEST: T1, MLL1 third plant homeodomain (PHD3) (UniProt Q03164 1564-1627)
T1 construct: mixed-lineage leukemia 1 (MLL1), PHD3 domain, residues 1564 to 1627 (chain B 1564–1627); coordinates two zinc ions; The tag was removed with TEV protease on the chitin column; also called MLL1 PHD3; MLL1-PHD3; source: E. coli BL21-(DE3), codon-optimized construct, IMPACT system, purified (chitin beads, TEV cleavage, Superdex 75)
RUN_DESCRIPTION: ITC; conditions not given (table S1, fig. S2)
CONDITIONS: both partners purified
MEASURE: Kd (µM)
Give just the numeric value; µM need not be written.

Form: binder = ARTKQTARKSTGG (peptide, UniProt P68431 2-14, looked up, N6-trimethyl-lysine at 4, histone H3 N-terminal tail, residues 1–13 (chain C of the ternary complex), Lys4 trimethylated; The text says that it has four positively charged residues and no negatively charged one; The limits 1–13 are those of chain C of the structure; also called H3K4me3 peptide; histone H3 tail) [Histone H3 lysine N6-trimethylated peptide (H3K4me3)] ; Kd = 51
